Source of measurements: paper PMC7802075

Target: LmjIPCS (inositol phosphorylceramide synthase from L. major) (Leishmania major, UniProt E9AFX2)
Sequence (E9AFX2 1-338): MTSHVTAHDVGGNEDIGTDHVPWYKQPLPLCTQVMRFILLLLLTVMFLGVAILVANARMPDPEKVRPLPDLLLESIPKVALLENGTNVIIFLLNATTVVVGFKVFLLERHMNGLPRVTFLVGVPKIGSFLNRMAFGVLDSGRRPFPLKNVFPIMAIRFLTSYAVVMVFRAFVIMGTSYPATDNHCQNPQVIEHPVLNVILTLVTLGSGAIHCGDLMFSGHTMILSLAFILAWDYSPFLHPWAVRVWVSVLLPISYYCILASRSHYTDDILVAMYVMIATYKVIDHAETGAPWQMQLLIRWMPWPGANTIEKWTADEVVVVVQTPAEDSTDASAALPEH
Assay Notes: biochemical
Type: biochemical
Where a SMILES comes first, the peptide text is derived from it.
Observation Type: 20mM inhibition LmjIPCS (%)

compound="CCCCC1C(=O)N(c2ccccc2)N(c2ccc(O)cc2)C1=O (stereo not shown)" recorded_number=45
compound="CC(C)C[C@H](N)C(=O)N[C@@H](C)C(=O)O [L-LEUCYL-L-ALANINE] (H-Leu-Ala-OH)" recorded_number=5.46
compound="NC(=O)N1c2ccccc2C=Cc2ccccc21 [CARBAMAZEPINE]" recorded_number=50
compound=CCCc1ncc(C[n+]2ccccc2C)c(N)n1 recorded_number=44
compound=O=C1c2ccccc2C(=O)c2c(O)c(O)cc(O)c21 recorded_number=35
compound=CO[C@H]1C[C@H](O[C@@H]2/C(C)=C/C[C@@H]3C[C@@H](C[C@]4(CC[C@H](C)[C@@H](C5CCCCC5)O4)O3)OC(=O)[C@@H]3C=C(C)/C(=N/O)[C@H]4OC/C(=C\C=C\[C@@H]2C)[C@]43O)O[C@@H](C)[C@@H]1O recorded_number=45
compound="CCN(CC)CCCC(C)Nc1ccnc2cc(Cl)ccc12 (stereo not shown)" recorded_number=38
compound="C[C@H](CCC(=O)[O-])[C@H]1CC[C@H]2[C@@H]3C(=O)C[C@@H]4CC(=O)CC[C@]4(C)[C@H]3CC(=O)[C@]12C.[Na+] [SODIUM DEHYDROCHOLATE]" recorded_number=-6.4
compound="CC(=O)O.CNC(=N)NCCC[C@H](N)C(=O)O [Ng-METHYL-L-ARGININE ACETATE]" recorded_number=0.168
compound=CC1=C(/C=C/C(C)=C/C=C/C(C)=C/C=C/C=C(C)/C=C/C=C(C)/C=C/C2=C(C)CCCC2(C)C)C(C)(C)CCC1 recorded_number=45
compound=CNC(=O)Oc1ccc2c(c1)[C@]1(C)CCN(C)[C@@H]1N2C recorded_number=9
compound=CC(=O)OCC[N+](C)(C)C recorded_number=58
compound=C[C@@H]1[C@H](O)[C@@H](C)/C=C/C=C/C=C/C=C/C=C/C=C/C=C/[C@H](O[C@@H]2O[C@H](C)[C@@H](O)[C@H](N)[C@@H]2O)C[C@@H]2O[C@](O)(C[C@@H](O)C[C@@H](O)[C@H](O)CC[C@@H](O)C[C@@H](O)CC(=O)O[C@H]1C)C[C@H](O)[C@H]2C(=O)O recorded_number=41
